Biological target: feline FcRn complex (FcRn-α subunit and β-microglobulin), biotin labeled (feline)
Experiment: SPR, pH 6
assay_metric: Kd (nM)
One number for each entry, in nM.

Memo: feline IgG1a T256F (antibody, part only; not given: Variable domains, not shown: another chain or arm of the molecule) constant: ASTTAPSVFPLAPSCGTTSGATVALACLVLGYFPEPVTVSWNSGALTSGVHTFPAVLQASGLYSLSSMVTVPSSRWLSDTFTCNVAHPPSNTKVDKTVRKTDHPPGPKPCDCPKCPPPEMLGGPSIFIFPPKPKDTLSISRFPEVTCLVVDLGPDDSDVQITWFVDNTQVYTAKTSPREEQFNSTYRVVSVLPILHQDWLKGKEFKCKVNSKSLPSPIERTISKAKGQPHEPQVYVLPPAQEELSRNKVSVTCLIKSFHPPDIAVEWEITGQPEPENNYRTTPPQLDSDGTYFVYSKLSVDRSHWQRGNTYTCSVSHEALHSHHTQKSLTQSPGK , reported Kd: 50.3
